# Test system: XG21
# protocol-notes: Cell Titer Glo viability, XG21 HMCL
# Format: cell-based, human
# experimental-context: Homo sapiens; XG21, CTG viability
pIC50: −log10 of the molar value.
readout-type: pIC50

INSERT INTO results (cpd_smiles, numeric_result) VALUES
  ('NC(=O)Nc1cc(-c2cccc(F)c2)sc1C(=O)N[C@H]1CCCNC1', 6.68),
  ('CC(=O)c1cnc2ccc(-c3cc(Cl)c(O)c(Cl)c3)nc2c1N[C@H]1CC[C@H](CN(C)C)CC1', 8.70);

* * *

# System: AMO1
# protocol-notes: Cell Titer Glo viability, AMO1 HMCL
# Format: cell-based, human
# experimental-context: AMO1, CTG viability
Quick reference: IC20 of the listed items.
readout-type: IC20

INSERT INTO measurements (cpd_smiles, measured_target, result) VALUES
  ('O=C(Nc1cc(C(F)(F)F)ccc1N1CCCCC1)c1ccncc1', 'AMO1', '30 µM'),
  ('COc1c(Nc2cc(C)[nH]n2)nc(Sc2ccc(S(=O)(=O)Cc3cccc([N+](=O)[O-])c3F)cc2F)nc1N1CCCCC1', 'AMO1', '0.024 µM'),
  ('N#Cc1c2nc3ccccc3nc2n2ccc(NC(=O)c3cccs3)cc12', 'AMO1', '3.9 µM'),
  ('Cl.O=c1[nH]c([C@@H]2CCCN2)nc2c1oc1ccc(Cl)cc12', 'AMO1', '9.4 µM');

* * *

Quick reference: IC50 of the listed items.
# System: XG1
# protocol-notes: Cell Titer Glo viability, XG1 HMCL
# Type: cell-based, human
# experimental-context: Homo sapiens; XG1, CTG viability
readout-type: IC50

INSERT INTO results (cpd_smiles, measured_target, readout_type, result) VALUES
  ('CC(=O)c1cnc2ccc(-c3cc(Cl)c(O)c(Cl)c3)nc2c1N[C@H]1CC[C@H](CN(C)C)CC1', 'XG1', 'IC50', '12 nM'),
  ('NC(=O)Nc1cc(-c2cccc(F)c2)sc1C(=O)N[C@H]1CCCNC1', 'XG1', 'IC50', '95 nM');

* * *

Quick reference: pIC50 of the listed items.
# Test system: AMO1
# protocol-notes: Cell Titer Glo viability, AMO1 HMCL
# Assay type: cell-based, human
# experimental-context: Homo sapiens; AMO1, CTG viability
pIC50: −log10 of the molar value.
readout-type: pIC50

INSERT INTO measurements (cpd_smiles, readout_type, numeric_result) VALUES
  ('NC(=O)Nc1cc(-c2cccc(F)c2)sc1C(=O)N[C@H]1CCCNC1', 'pIC50', 6.87),
  ('CC(=O)c1cnc2ccc(-c3cc(Cl)c(O)c(Cl)c3)nc2c1N[C@H]1CC[C@H](CN(C)C)CC1', 'pIC50', 8.09);

Value source: patent US11499197B2
